Experiment: rescue of polyQ-huntingtin neuronal dysfunction in worms, whole organism, C. elegans mechanosensory neurons, N-terminal huntingtin (AID 1599)
Details: touch response, stronger effect = higher value
Results with a measured potency or affinity are listed apart.
Criterion: rescue above control meeting or surpassing 0. Met: TRUE. Not met: FALSE.

Data request: I'd appreciate it if you could say whether CC(C)=CCCC1(C)C=Cc2c(O)c3c(c(CC=C(C)C)c2O1)OC12C(=CC4CC1C(C)(C)OC2(C/C=C(/C)C(=O)O)C4=O)C3=O (stereo unspecified) has rescue above control at least equal to 0.
Data returned: FALSE

Data request: Check if rescue above control >= 0 (inclusive). Item: C#CC1(O)CCC2C3CCC4=CC(=O)CCC4(C)C3CCC21C (stereo unspecified)
Data returned: TRUE

Data request: Test whether the compound COc1cc(CCN)cc(OC)c1OC records rescue above control of 0 or higher.
Data returned: FALSE

Data request: Has N#C/C(=C\c1cccc(O)c1)C(=O)O a recorded rescue above control greater than or equal to 0?
Data returned: FALSE
